# study-system: FtsZ protein (Staphylococcus aureus, UniProt P0A031)
# Sequence (P0A031 whole entry): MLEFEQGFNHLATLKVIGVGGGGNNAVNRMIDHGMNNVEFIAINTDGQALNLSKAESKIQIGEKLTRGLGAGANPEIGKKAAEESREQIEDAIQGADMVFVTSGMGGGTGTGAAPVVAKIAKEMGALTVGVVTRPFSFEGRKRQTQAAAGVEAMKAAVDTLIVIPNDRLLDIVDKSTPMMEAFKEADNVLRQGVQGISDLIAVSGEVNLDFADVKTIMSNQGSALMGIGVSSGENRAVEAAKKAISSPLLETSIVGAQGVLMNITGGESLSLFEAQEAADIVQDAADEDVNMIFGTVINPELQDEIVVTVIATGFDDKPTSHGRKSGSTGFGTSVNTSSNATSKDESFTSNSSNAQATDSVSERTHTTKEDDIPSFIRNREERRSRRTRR
measure-name: pKd
Formally, pKd is defined as -log10 of the concentration c, with c in mol/L.

Field pKd (FtsZ protein (Staphylococcus aureus, UniProt P0A031)), entry CC(C)(C)c1[nH]cnc1/C=c1\[nH]c(=O)/c(=C/c2ccccc2)[nH]c1=O [Compound 23, Plinabulin] : 4.82
